Kindly supply the reported % Mortality 48 hrs values for the records listed here.
# Test system: adult male Blatella germanica
# EXPERIMENT_DESCRIPTION: Cockroach assay of Table 16 (title contact assay, text feeding assay)
# Type: in vivo
# PARTICULARS: 200 mM compound
Give bare numbers, in %.

# annotated cases, reported % Mortality 48 hrs shown
INSERT INTO assay_data (molecule, outcome_measure, observed_value) VALUES
  ('CCNC(=O)N1CCN(CCCC(c2ccc(F)cc2)c2ccc(F)cc2)CC1 [Amperozide]', '% Mortality 48 hrs', 0),
  ('CN(C)CCC=C1c2ccccc2CCc2ccccc21 [Amitriptyline]', '% Mortality 48 hrs', 20),
  ('CN1CC2c3ccccc3Oc3ccc(Cl)cc3C2C1 (stereo not drawn) [Asenapine]', '% Mortality 48 hrs', 20),
  ('COC(=O)N(C(=O)N1CO[C@@]2(C(=O)OC)Cc3cc(Cl)ccc3C2=N1)c1ccc(OC(F)(F)F)cc1 [Indoxacarb]', '% Mortality 48 hrs', 63),
  ('CN(C)CCCN1c2ccccc2Sc2ccc(Cl)cc21 [Chlorpromazine]', '% Mortality 48 hrs', 17);

Moving on to another molecule below.
Return value of % Mortality 48 hrs for input OCCN1CCN(CC/C=C2/c3ccccc3Sc3ccc(C(F)(F)F)cc32)CC1 [cis-(Z)-Flupenthixol] , no commentary.
10
